# Test system: HP1 (TAMRA at T37) (DNA, hairpin, T37 replaced by 2'-deoxyuridine bearing TAMRA at C5) CCTGGAGAGGAAGCCAAGTGTTTTCACTTGGCTTCCTCTCCAGG
# experiment description: fluorescence titration
# run conditions: 50 mM NaCl; 10 mM HEPES, 1 mM EDTA, pH 7.4, 25 °C
observed property: Kd (nM)
State the answer as a number, implicitly in nM.

Known Kd results, listed for orientation:
CN(C)CCCNC(=O)CCNC(=O)c1cc(NC(=O)c2cc(NC(=O)c3nc(NC(=O)CCCNC(=O)c4cc(NC(=O)c5nc(NC(=O)c6nccn6C)cn5C)cn4C)cn3C)cn2C)cn1C: 7.8
CN(C)CCCNC(=O)CCNC(=O)c1cc(NC(=O)CCNC(=O)c2cc(NC(=O)c3cc(NC(=O)CCCNC(=O)c4nc(NC(=O)c5cc(NC(=O)c6nc(NC(=O)c7nccn7C)cn6C)cn5C)cn4C)cn3C)cn2C)cn1C: 50
CN(C)CCCNC(=O)CCNC(=O)c1cc(NC(=O)c2cc(NC(=O)c3nc(NC(=O)c4cc(NC(=O)CCCNC(=O)c5cc(NC(=O)c6cc(NC(=O)c7nc(NC(=O)c8nccn8C)cn7C)cn6C)cn5C)cn4C)cn3C)cn2C)cn1C: 2.3

Input line: Entry `CN(C)CCCNC(=O)CCNC(=O)c1cc(NC(=O)c2cc(NC(=O)c3cc(NC(=O)c4cc(NC(=O)CCCNC(=O)c5nc(NC(=O)CCNC(=O)c6nc(NC(=O)c7nccn7C)cn6C)cn5C)cn4C)cn3C)cn2C)cn1C` : reported Kd = ?
Output line: 140
